- Target desc: Mu-type opioid receptor (Homo sapiens, UniProt P35372)
- Sequence (P35372 whole entry): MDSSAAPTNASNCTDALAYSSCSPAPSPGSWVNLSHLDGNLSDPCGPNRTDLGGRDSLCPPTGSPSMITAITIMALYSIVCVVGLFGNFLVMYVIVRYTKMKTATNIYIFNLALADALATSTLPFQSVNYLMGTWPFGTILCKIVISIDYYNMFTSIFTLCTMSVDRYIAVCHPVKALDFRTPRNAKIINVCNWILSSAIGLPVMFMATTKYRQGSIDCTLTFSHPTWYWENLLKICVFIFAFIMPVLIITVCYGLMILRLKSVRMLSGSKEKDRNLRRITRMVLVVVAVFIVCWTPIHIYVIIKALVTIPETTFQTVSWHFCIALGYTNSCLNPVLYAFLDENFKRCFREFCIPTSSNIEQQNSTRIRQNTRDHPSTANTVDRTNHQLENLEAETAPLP
- Experimental protocol: Agonist activity at human mu opioid receptor expressed in CHO cells by [35S]GTPgammaS binding assay
// reported EC50 for each item listed
Assay readout: EC50 (pM)

> print(dat)
                                   compound  assay.readout  unit.descriptor  result
1  O=C(NCCc1ccccc1)C1=N[C@@]23CC[C@]1(O)C1Oc4c(O)ccc5c4C12CCN(CC1CC1)C3C5 (stereo partly drawn)           EC50               pM    1090
2  CN(C(=O)/C=C/c1ccoc1)[C@@H]1CC[C@@]2(O)[C@H]3Cc4ccc(O)c5c4[C@@]2(CCN3CC2CC2)[C@H]1O5           EC50               pM     720
3  O=C(NCc1ccccc1)C1=N[C@@]23CC[C@]1(O)C1Oc4c(O)ccc5c4C12CCN(CC1CC1)C3C5 (stereo partly drawn)           EC50               pM     400

----------
- Target desc: Kappa-type opioid receptor (Cavia porcellus, UniProt P41144)
- Sequence (P41144 whole entry): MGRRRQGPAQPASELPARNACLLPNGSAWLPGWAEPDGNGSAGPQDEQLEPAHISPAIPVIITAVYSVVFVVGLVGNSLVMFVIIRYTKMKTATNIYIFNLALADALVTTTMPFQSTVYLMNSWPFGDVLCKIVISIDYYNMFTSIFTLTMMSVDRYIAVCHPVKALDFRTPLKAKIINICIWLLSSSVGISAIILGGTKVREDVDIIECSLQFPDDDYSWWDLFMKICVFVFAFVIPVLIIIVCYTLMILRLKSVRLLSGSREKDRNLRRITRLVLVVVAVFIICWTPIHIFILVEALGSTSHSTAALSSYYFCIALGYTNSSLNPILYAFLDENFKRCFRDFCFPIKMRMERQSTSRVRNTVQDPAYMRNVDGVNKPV
pKi: −log10 of the molar value.
Assay readout: pKi

> print(dat)
                                   compound  result
1  O=C(C[C@@H]1N[C@@]23CC[C@]1(O)C1Oc4c(O)ccc5c4C12CCN(CC1CC1)C3C5)NCc1ccccc1 (stereo partly drawn)    9.96
2  O=C(NCCc1ccccc1)C1=N[C@@]23CC[C@]1(O)C1Oc4c(O)ccc5c4C12CCN(CC1CC1)C3C5 (stereo partly drawn)    9.92
3  O=C(NCc1ccccc1)[C@@H]1N[C@@]23CC[C@]1(O)C1Oc4c(O)ccc5c4C12CCN(CC1CC1)C3C5 (stereo partly drawn)    9.74
